biological target: Melanocortin receptor 3 (Homo sapiens); assay: Displacement of [I125] NDP-alpha-MSH from human MC3R stably overexpressing in HEK293 cells in presence of [I125] labeled NDP-alpha-MSH treated at 10 uM for 40 mins measured by microbeta 2 microplate counter analysis; type: cell-based
Sequence (P41968 whole entry): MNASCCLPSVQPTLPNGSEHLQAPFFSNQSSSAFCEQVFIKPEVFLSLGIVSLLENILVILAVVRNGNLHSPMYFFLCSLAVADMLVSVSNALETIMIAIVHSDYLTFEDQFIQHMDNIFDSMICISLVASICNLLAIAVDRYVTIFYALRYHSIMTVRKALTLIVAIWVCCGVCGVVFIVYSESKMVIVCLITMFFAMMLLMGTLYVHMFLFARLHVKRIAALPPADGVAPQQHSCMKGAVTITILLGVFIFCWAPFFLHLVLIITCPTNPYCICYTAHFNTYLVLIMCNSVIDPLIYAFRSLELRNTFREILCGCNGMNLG
RESULT_TYPE: IC50

[
  {
    "SMI": "CC(=O)N[C@@H](Cc1c[nH]cn1)C(=O)N[C@H](Cc1ccccc1)C(=O)N[C@@H](CCCNC(=N)N)C(=O)N[C@H]1Cn2nncc2CNC1=O",
    "EXPERIMENTAL_TARGET": "Melanocortin receptor 3 (Homo sapiens)",
    "REPORTED_MEASUREMENT": "Not Active"
  },
  {
    "SMI": "CCCC[C@H](NC(=O)[C@@H](Cc1ccccc1)NC(=O)[C@H](Cc1c[nH]cn1)NC(C)=O)C(=O)N[C@H]1Cc2ccccc2CNC1=O",
    "EXPERIMENTAL_TARGET": "Melanocortin receptor 3 (Homo sapiens)",
    "REPORTED_MEASUREMENT": "Not Active"
  },
  {
    "SMI": "CCCC[C@H](NC(=O)[C@@H](Cc1ccccc1)NC(=O)[C@H](Cc1c[nH]cn1)NC(C)=O)C(=O)N[C@H]1Cc2c([nH]c3ccccc23)CNC1=O",
    "EXPERIMENTAL_TARGET": "Melanocortin receptor 3 (Homo sapiens)",
    "REPORTED_MEASUREMENT": "Not Active"
  },
  {
    "SMI": "CC(=O)N[C@@H](Cc1c[nH]cn1)C(=O)N[C@H](Cc1ccccc1)C(=O)N[C@@H](CCCNC(=N)N)C(=O)N[C@H]1Cc2ccccc2CNC1=O",
    "EXPERIMENTAL_TARGET": "Melanocortin receptor 3 (Homo sapiens)",
    "REPORTED_MEASUREMENT": "Not Active"
  },
  {
    "SMI": "CCCC[C@H](NC(=O)[C@@H](Cc1ccccc1)NC(=O)[C@H](Cc1c[nH]cn1)NC(C)=O)C(=O)N[C@H]1Cn2nncc2CNC1=O",
    "EXPERIMENTAL_TARGET": "Melanocortin receptor 3 (Homo sapiens)",
    "REPORTED_MEASUREMENT": "Not Active"
  }
]

These data points were gathered from ChEMBL document CHEMBL5338760.
